Value source: PubChem BioAssay

biological target: Neurogenic locus notch homolog protein 2 (Homo sapiens) (UniProt Q04721); assay: Notch2 binders on small-molecule microarrays, primary screen, biochemical, small-molecule microarray, 635 nm fluorescence, stem cell growth factors (AID 1073); settings: Notch2 binding, higher = more signal
Sequence (Q04721 whole entry, looked up): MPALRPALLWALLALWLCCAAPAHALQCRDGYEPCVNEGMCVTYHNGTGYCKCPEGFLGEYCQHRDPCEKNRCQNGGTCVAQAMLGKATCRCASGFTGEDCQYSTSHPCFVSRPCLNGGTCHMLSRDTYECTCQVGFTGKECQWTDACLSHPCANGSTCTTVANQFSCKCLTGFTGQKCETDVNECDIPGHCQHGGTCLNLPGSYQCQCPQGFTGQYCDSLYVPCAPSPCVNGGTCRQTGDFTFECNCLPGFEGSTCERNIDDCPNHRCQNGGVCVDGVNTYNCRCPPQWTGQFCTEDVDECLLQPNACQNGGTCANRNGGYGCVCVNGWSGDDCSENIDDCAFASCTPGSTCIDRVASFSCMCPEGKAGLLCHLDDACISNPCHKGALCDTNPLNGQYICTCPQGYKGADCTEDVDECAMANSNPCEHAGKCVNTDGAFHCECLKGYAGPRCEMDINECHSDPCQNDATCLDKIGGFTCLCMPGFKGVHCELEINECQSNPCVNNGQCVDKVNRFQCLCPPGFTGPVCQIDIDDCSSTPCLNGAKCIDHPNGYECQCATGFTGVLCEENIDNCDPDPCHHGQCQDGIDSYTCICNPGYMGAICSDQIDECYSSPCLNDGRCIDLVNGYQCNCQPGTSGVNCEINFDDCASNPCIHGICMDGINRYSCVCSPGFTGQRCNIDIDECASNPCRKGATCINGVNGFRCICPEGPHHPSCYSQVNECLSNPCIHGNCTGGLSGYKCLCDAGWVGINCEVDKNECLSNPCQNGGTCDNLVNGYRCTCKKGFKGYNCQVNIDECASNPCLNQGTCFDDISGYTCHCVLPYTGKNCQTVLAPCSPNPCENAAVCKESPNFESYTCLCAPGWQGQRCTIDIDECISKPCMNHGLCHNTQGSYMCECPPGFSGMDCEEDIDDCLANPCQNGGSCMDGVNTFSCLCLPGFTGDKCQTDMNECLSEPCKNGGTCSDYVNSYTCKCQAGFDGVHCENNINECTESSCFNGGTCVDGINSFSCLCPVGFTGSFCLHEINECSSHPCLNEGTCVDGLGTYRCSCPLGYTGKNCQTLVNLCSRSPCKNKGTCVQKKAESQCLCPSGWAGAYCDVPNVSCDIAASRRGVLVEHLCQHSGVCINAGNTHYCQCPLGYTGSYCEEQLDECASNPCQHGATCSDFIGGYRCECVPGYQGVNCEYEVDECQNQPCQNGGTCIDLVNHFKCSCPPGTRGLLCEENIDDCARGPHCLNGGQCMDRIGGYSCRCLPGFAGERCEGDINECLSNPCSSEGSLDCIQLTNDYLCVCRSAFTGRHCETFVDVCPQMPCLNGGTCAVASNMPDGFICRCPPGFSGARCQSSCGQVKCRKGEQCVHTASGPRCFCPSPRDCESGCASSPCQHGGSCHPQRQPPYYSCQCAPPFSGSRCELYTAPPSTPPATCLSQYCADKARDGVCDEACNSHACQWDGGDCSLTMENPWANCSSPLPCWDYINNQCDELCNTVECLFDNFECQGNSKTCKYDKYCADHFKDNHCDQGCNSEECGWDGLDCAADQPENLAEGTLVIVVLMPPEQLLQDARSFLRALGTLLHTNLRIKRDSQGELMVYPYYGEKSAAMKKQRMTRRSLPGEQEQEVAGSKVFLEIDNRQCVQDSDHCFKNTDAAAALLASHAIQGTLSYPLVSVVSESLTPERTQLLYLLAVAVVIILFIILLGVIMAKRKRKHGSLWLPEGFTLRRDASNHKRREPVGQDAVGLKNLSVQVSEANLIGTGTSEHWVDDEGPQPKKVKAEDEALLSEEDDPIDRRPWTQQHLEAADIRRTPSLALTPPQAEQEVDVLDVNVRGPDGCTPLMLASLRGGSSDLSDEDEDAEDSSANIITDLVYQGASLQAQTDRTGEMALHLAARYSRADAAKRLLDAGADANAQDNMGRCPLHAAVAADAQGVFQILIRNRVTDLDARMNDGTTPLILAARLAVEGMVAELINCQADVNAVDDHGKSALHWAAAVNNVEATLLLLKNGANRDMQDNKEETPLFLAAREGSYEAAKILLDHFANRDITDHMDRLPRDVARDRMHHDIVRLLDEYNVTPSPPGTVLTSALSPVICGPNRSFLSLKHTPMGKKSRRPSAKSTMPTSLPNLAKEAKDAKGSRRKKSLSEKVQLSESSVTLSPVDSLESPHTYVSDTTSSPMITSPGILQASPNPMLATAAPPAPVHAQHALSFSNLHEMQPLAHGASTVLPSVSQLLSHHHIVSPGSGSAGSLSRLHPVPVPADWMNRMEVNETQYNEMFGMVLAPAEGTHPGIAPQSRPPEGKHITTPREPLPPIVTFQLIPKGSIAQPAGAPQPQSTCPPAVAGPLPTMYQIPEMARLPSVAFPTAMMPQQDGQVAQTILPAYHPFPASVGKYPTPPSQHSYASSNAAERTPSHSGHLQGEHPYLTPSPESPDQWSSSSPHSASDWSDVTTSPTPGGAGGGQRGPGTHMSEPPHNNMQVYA
MEASURED METRIC: composite z-score
Answer field: number only, no words.

Past entries and their recorded results:
CC(=O)OC[C@H]1OC(ON=CC[C@@H]2C=C[C@H](OC(C)=O)[C@@H](COC(C)=O)O2)[C@H](OC(C)=O)[C@@H](OC(C)=O)[C@@H]1OC(C)=O (some centres undefined) :: 0.94
COc1ccc(O[C@@H]2[C@H](O)CO[C@H]2C=Cc2ccccc2)cc1 :: -0.625
O=C1C[C@@H](O)[C@@H](O)[C@@H]2[C@@H]3C(=O)N(C[C@@H]4CCCO4)C(=O)[C@@H]3CC[C@H]12 :: 0.733

Read the next record carefully.
Reported composite z-score of C=C(C)C(=O)OCC1CN2[C@@H](CC[C@@H](C)[C@@H]2c2ccc(Br)cc2)C(=O)O1 (some centres undefined) : 0.331

----------
Below, each entry is listed alongside its reported composite z-score.
assay: small-molecule microarray binders of probe aEGFR, primary screen, biochemical, biotinylated probe, 635/667 nm fluorescence (AID 1097); conditions: higher = more signal;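 further: probe is a biotinylated anti-EGFR antibody binding compounds printed on slides; score combines fluorescence near 667 nm and signal to noise of each spot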
Respond with the number and no other words.

COc1ccc(COC(=O)NN=C2C[C@@H](O)[C@@H](O)[C@@H]3[C@@H]4C(=O)N(C5CCCCC5)C(=O)[C@@H]4CC[C@H]23)cc1 :: -0.242
O=C1[C@H]2[C@H]3[C@H](O)[C@H](O)CC(=NOC[C@@H](O)COCc4ccco4)[C@H]3CC[C@H]2C(=O)N1c1ccc(F)cc1F :: -0.165

Kindly note the recorded composite z-score for COc1cc(O)c(C(=O)C=Cc2ccc3c(c2)OCO3)c(OC)c1 , which is -0.113

// recorded composite z-score for O=C(NN=C1C[C@@H](O)[C@@H](O)[C@@H]2[C@@H]3C(=O)N(C[C@@H]4CCCO4)C(=O)[C@@H]3CC[C@@H]12)OCc1ccccc1 : -0.0947

# compound COc1ccc(O[C@H]2C=C[C@@H](c3ccccc3)O[C@@H]2CON=CC[C@@H]2C=C[C@H](OC(C)=O)[C@@H](COC(C)=O)O2)cc1 ; its composite z-score = -0.0267

----------
# z-score listing for each entry below
experiment: mitochondrial membrane potential change in A549 cells, profiling panel, cell-based, JC-1 fluorescence, basal, 24 h, 100 nL (AID 1138); settings: higher = more signal;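 further: A549 lung adenocarcinoma cells under basal conditions with no added stimulus; test concentration not given here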
Just the number, please.

CCC=CCCC(OC(=O)c1ccc(Br)cc1)C1=CCCCC1=O (stereo not given) :: -0.158
CCOC(=O)[C@H](CC(C)C)NC(=O)CCC1CC(OC(=O)NCc2cccc3ccccc23)CC2(CCCC(COC(=O)NCCOC)O2)O1 (stereo not given in full) :: -0.157
CO[C@H]1COC(=O)[C@H](C)NC(=O)CC=C[C@@H](C)[C@H](OC)COC(=O)[C@@H](OCc2ccccc2)C=C[C@@H]1C :: 0.805
COc1cccc([C@H]2Oc3ccc(OC)cc3C(=NO[C@H](C)c3cn([C@H](CO)Cc4ccccc4)nn3)[C@@H]2O)c1 :: -0.685

With those in mind, consider the next molecule.
Lab book: z-score of O=c1n(-c2ccccc2)c(=O)n2n1CC[C@@H]1C(=NOCc3ccccc3)[C@H]3O[C@H]3[C@@H](O)[C@@H]12 noted as 0.397
